# target_entity: Adrenergic receptor alpha-2 (Rattus norvegicus, UniProt P22086+P19328+P22909)
# test: Ability to displace [3H]rauwolscine from Alpha-2 adrenergic receptor in rat cortical membranes
# Format: cell membranes
readout: Ki (nM)

A = COc1ccc2c(c1)CCCC2CN(C)CCc1ccc2c(c1)OCO2 (centres undefined)
B = COc1cccc2c1CCC[C@H]2CN(CCc1ccc2c(c1)OCO2)C1CC1
C = COc1cccc2c1CCC[C@H]2CN(C)CCc1ccc2c(c1)N(S(=O)(=O)C(F)(F)F)CC2
D = COc1cccc2c1CCC[C@H]2CN(C)CCc1ccc2nc(Cl)sc2c1
Exercise: List by increasing Ki. State the ranking by listing the labels in the requested order.
Key: D, A, C, B

---

# target_entity: Adrenergic receptor alpha-2 (Rattus norvegicus, UniProt P22086+P19328+P22909)
# test: Ability to displace [3H]rauwolscine from Alpha-2 adrenergic receptor in rat cortical membranes
# Type: cell membranes
readout: Ki (nM)

// below: answered molecules
{"columns": ["molecule", "test_value"],
 "data": [
  ["COc1cccc2c1CCC[C@H]2CN(C)CCc1ccc2ncsc2c1", 2.73],
  ["COc1cccc2c1CCC[C@H]2CN(C)CCc1ccc2c(c1)CCO2", 1.76],
  ["COc1cccc2c1CCC[C@H]2CN(C)CCc1ccc2sccc2c1", 17.9],
  ["CN(CCc1ccc2c(c1)OCO2)C[C@@H]1CC[C@@H]2CCOc3cccc1c32", 113],
  ["COc1ccc2c(c1)C(CN(C)CCc1ccc3c(c1)OCO3)CCC2 (configuration not stated)", 57.5],
  ["COc1cccc2c1CCC[C@H]2CN(C)CCc1ccc2nc(C)sc2c1", 2.12],
  ["COc1cccc2c1CCC[C@H]2CN(C)CCc1ccc2ncoc2c1", 1.22],
  ["COc1cccc2c1C(CN(C)CCc1ccc3c(c1)OCO3)CCC2 (configuration not stated)", 2.88],
  ["COc1cccc2c1CCC[C@@H]2CN(C)CCc1ccc2c(c1)OCO2", 88.6],
  ["COc1cccc2c1CCC[C@H]2CN(C)CCc1ccc2c(c1)CN(S(C)(=O)=O)C2", 5.33]
]}

A = COc1cccc2c1CCC[C@H]2CN(C)CCc1ccc2occc2c1
B = COc1cccc2c1CCC[C@H]2CN(C)CCc1ccc2c(c1)OCO2
Exercise: Lab log: flag the item ( A or B ) with the smaller Ki figure. Identify your pick by its label.
Key: B

P = COc1cccc2c1CCC[C@H]2CN(C)CCc1ccc2c(c1)CN(S(=O)(=O)C(F)(F)F)C2
Q = COc1cccc2c1CCC[C@H]2CN(C)CCc1ccc2c(c1)CS(=O)(=O)C2
Exercise: Of the two listed items, P and Q , which carries the larger Ki figure? Use the label to indicate which entry you chose.
Key: P

---

# target_entity: Sodium-dependent serotonin transporter (Rattus norvegicus)
# Sequence (P31652 whole entry): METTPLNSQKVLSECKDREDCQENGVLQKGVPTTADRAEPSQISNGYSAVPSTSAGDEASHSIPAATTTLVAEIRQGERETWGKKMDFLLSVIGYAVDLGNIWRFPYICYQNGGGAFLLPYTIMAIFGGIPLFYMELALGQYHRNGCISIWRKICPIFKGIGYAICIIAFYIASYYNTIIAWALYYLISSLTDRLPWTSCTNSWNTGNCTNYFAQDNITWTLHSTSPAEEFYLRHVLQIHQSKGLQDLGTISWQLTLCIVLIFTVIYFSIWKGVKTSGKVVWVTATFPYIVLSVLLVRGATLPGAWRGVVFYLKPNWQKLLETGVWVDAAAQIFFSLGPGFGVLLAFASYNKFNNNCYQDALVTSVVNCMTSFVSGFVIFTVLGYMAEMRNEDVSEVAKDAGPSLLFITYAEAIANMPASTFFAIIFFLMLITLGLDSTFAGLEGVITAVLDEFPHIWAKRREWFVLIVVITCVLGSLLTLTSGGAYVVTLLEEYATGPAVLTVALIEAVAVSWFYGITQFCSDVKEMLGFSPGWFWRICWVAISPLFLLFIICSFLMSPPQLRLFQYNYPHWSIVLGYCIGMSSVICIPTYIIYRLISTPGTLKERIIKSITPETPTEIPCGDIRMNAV
# test: Inhibition of uptake of [3H]5-HT in synaptosomes from rat cortex
readout: IC50 (nM)

Guide cases for IC50, answers given:
{"columns": ["compound", "target_entity", "result_units", "IC50"],
 "data": [
  ["COc1cccc2c1CCC[C@H]2CN(C)CCc1ccc2c(c1)CNC2", "Sodium-dependent serotonin transporter (Rattus norvegicus)", "nM", 11.6],
  ["COc1cccc2c1CCC[C@H]2CN(C)CCc1ccc2nccnc2c1", "Sodium-dependent serotonin transporter (Rattus norvegicus)", "nM", 44.4],
  ["COc1cccc2c1CCC[C@H]2CN(C)CCc1ccc2c(c1)OCC2", "Sodium-dependent serotonin transporter (Rattus norvegicus)", "nM", 18.1]
]}

1 = COc1cccc2c1CCC[C@H]2CN(C)CCc1ccc2[nH]c(O)nc2c1
2 = COc1cccc2c1CCC[C@H]2CN(C)CCc1ccc2c(c1)CCS2(=O)=O
3 = COc1cccc2c1CCC[C@H]2CN(C)CCc1ccc2c(c1)C=CS2(=O)=O
4 = COc1cccc2c1CCC[C@H]2CN(C)CCc1ccc2c(c1)CS(=O)(=O)C2
5 = COc1ccc2c(c1OC)CCC[C@H]2CN(C)CCc1ccc2c(c1)OCO2
Exercise: List the 5 entries from lowest IC50 to highest IC50 value. Output spec: a listing of the labels in the requested order.
Key: 4, 1, 2, 3, 5
(4: 6.67 nM, 1: 16.3 nM, 2: 33.7 nM, 3: 51 nM, 5: 757 nM)

1 = COc1cccc2c1CCC[C@H]2CN(C)CCc1ccc2[nH]cnc2c1
2 = CSc1cccc2c1CCCC2CN(C)CCc1ccc2c(c1)OCO2 (centres undefined)
3 = COc1cccc2c1CCC[C@H]2CNCCc1ccc2c(c1)OCO2
4 = COc1cccc2c1CCC[C@H]2CN(C)CCc1ccc2ncoc2c1
Exercise: Hi! Can you put these in order of IC50, lowest number first? Write out the labels following the order that was asked for.
Key: 4, 1, 2, 3

A = COc1ccc2c(c1)CCCC2CN(C)CCc1ccc2c(c1)OCO2 (centres undefined)
B = CN(CCc1ccc2c(c1)OCO2)CC1CCCc2c1ccc1c2OCO1 (centres undefined)
Exercise: Identify the entry with the larger IC50. Options: A and B State your choice using its label.
Key: A

I = COc1cccc2c1CCC[C@H]2CN(C)CCc1ccc2occc2c1
II = COc1cccc2c1CCC[C@H]2CN(C)CCc1ccc2sccc2c1
Exercise: Compare I and II and name the one whose reported IC50 is smaller. I would appreciate it if you answered with the label of your choice.
Key: I

---

# target_entity: Sodium-dependent serotonin transporter (Rattus norvegicus)
# test: Inhibition of uptake of [3H]5-HT in synaptosomes from rat cortex
pIC50: −log10 of the molar value.
readout: pIC50

Solved cases (2 shown):
{"columns": ["compound", "target_entity", "test_value"],
 "data": [
  ["COc1cccc2c1CCC[C@@H]2CN(C)CCc1ccc2c(c1)OCO2", "Sodium-dependent serotonin transporter (Rattus norvegicus)", 5.88],
  ["COc1cccc2c1CCC[C@H]2CN(C)CCc1ccc2c(c1)CCN2", "Sodium-dependent serotonin transporter (Rattus norvegicus)", 7.50]
]}

P = CN(CCc1ccc2c(c1)OCO2)CC1CCCc2ccccc21 (stereo unspecified)
Q = COc1cccc2c1CCC[C@H]2CN(C)CCc1ccc2c(c1)N(S(C)(=O)=O)CC2
Exercise: Compare P and Q and name the one whose reported pIC50 is smaller. Choose, then provide that item's label.
Key: P
(P: 5.96, Q: 7.41)

A = CN(CCc1ccc2c(c1)OCO2)C[C@@H]1CC[C@H]2CCOc3cccc1c32
B = COc1cccc2c1CCC[C@H]2CN(C)CCc1ccc2c(c1)CC(=O)N2
C = COc1cccc2c1CCC[C@H]2CN(C)CCc1ccc2ncccc2c1
Exercise: Rank the 3 compounds: largest pIC50 first, smallest last. Provide your answer as the labels ordered per the instruction.
Key: B, C, A

---

# target_entity: Adrenergic receptor alpha-2 (Rattus norvegicus, UniProt P22086+P19328+P22909)
# Sequence (P22086 whole entry): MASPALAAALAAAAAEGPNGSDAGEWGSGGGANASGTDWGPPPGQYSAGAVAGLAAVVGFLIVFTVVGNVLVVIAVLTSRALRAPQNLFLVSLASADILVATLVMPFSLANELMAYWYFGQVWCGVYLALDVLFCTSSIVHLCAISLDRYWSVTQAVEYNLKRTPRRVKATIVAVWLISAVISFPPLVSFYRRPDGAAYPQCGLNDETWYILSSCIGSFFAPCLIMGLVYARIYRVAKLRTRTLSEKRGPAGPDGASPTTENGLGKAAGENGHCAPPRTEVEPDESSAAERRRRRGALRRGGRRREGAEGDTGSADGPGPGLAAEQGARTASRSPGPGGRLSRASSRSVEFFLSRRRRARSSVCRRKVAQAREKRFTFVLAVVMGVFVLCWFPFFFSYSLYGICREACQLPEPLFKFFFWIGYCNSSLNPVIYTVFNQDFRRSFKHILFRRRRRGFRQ
# Sequence (P19328 whole entry): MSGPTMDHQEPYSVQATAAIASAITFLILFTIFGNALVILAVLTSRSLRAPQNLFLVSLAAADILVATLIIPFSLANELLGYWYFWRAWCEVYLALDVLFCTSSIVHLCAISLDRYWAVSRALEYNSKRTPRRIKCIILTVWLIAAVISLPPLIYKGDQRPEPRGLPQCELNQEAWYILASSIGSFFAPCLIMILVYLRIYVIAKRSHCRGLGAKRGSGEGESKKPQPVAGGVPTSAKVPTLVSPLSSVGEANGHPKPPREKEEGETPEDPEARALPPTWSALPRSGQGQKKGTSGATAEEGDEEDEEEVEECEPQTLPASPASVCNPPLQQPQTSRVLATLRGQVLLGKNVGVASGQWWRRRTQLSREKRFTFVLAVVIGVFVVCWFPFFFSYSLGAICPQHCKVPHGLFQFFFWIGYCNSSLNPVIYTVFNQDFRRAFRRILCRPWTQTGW
# Sequence (P22909 whole entry): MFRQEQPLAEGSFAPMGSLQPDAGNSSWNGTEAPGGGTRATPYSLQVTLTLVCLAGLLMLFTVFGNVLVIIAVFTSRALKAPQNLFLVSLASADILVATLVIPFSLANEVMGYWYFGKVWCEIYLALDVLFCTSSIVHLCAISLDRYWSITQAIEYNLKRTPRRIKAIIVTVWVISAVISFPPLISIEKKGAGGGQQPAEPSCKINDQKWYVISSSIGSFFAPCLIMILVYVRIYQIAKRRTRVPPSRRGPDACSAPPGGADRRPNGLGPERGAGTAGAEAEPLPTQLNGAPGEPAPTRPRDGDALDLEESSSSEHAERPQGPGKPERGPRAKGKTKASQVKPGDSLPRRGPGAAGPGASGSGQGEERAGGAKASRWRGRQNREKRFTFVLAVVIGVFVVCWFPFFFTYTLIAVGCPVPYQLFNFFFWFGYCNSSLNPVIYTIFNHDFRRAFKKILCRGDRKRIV
# test: Ability to displace [3H]rauwolscine from Alpha-2 adrenergic receptor in rat cortical membranes
# Format: cell membranes
readout: Ki (nM)

As a guide, the following entries are already answered.
{"columns": ["compound", "test_value"],
 "data": [
  ["COc1cccc2c1CCC[C@H]2CN(C)CCc1ccc2[nH]c(O)nc2c1", 10.8],
  ["COc1cccc2c1CCC[C@H]2CNCCc1ccc2c(c1)OCO2", 88.2]
]}

A = COc1cccc2c1CCCC2CN(C)CCc1ccc2c(c1)OCO2 (stereo unspecified)
B = COc1cccc2c1CCC[C@H]2CN(C)CCc1ccc2ocnc2c1
Exercise: Determine, for A and B , which has the greater value of Ki. Mark your selection by writing its label.
Key: A
(A: 6.71 nM, B: 1.77 nM)

1 = CSc1cccc2c1CCCC2CN(C)CCc1ccc2c(c1)OCO2 (stereo unspecified)
2 = COc1cccc2c1CCC[C@H]2CN(C)CCc1ccc2c(c1)NCC2
3 = COc1cccc2c1CCC[C@H]2CN(C)CCc1ccc2c(c1)C=CS2(=O)=O
Exercise: Could you please sort these 3 entries by Ki from high to low? Write the labels out in the order the request specifies.
Key: 1, 2, 3
(1: 21 nM, 2: 11.7 nM, 3: 4.82 nM)

I = CCN(CCc1ccc2c(c1)OCO2)C[C@@H]1CCCc2c(OC)cccc21
II = COc1cccc2c1CCC[C@H]2CN(C)CCc1ccc2c(c1)CCS2
Exercise: // returns I or II , whichever has the lower Ki # reply format: chosen label
Key: II
(II: 2.65 nM, I: 5.73 nM)

Ref: ChEMBL document CHEMBL1129981
